We begin with a simple list: items and their reported pKd.
molecular target: T1, BTN3A1-Fc (recombinant human BTN3A1 Fc-chimera, HEK293-expressed, R&D Systems) (human, UniProt O00481 30-254); assay: binding affinity, method not stated (Octet named in text)
T1 construct: Bought Fc-chimera; Biotinylated for the yeast display selections; not shown: Fc part of the bought Fc-chimera
The scale used: pKd is minus the common logarithm of the concentration in molar units.

# example entries with known answers
# binder, observed.measurement
measured = [
    ("Antibody 3B (antibody, IgG1, V domains shown, isotype hIgG1-297A (IgG1 N297A); kappa germline VK3-11.0) VH: QVQLVQSGAEVKKPGASVKVSCKASGYTFTSYYMHWVRQAPGQGLEWMGIINPSGGSTSYAQKFQGRVTMTRDTSTSTVYMELSSLRSEDTAVYYCARPSGDYSGYDALDVWGQGTMVTVSS VL: EIVLTQSPATLSLSPGERATLSCRASQSVSSYLAWYQQKPGQAPRLLIYDASNRATGIPARFSGSGSGTDFTLTISSLEPEDFAVYYCQQDPYWPITFGGGTKVEIK", 8.68),
    ("Antibody 2A (antibody, IgG1, V domains shown, isotype hIgG1-297A (IgG1 N297A); kappa germline VK3-15.1) VH: QVQLVQSGAEVKKPGASVKVSCKASGYTFTSYYIHWVRQAPGQGLEWMGIINPSGGSTSYAQKFQGRVTMTRDTSTSTVYMELSSLRSEDTAVYYCARATWEALHYWGQGTLVTVSS VL: EIVMTQSPATLSVSPGERATLSCRASQSVGSNLAWYQQKPGQAPRLLIYGASTRATGIPARFSGSGSGTEFTLTISSLQSEDFAVYYCQQYYAWPRTFGGGTKVEIK", 8.36),
    ("Antibody 3A (antibody, IgG1, V domains shown, isotype hIgG1-297A (IgG1 N297A); kappa germline VK1-05.6) VH: QVQLVQSGAEVKKPGASVKVSCKASGYTFTSYYMHWVRQAPGQGLEWMGIINPGGGSTSYAQKFQGRVTMTRDTSTSTVYMELSSLRSEDTAVYYCARDAGHDYGDMAYWGQGTLVTVSS VL: DIQMTQSPSTLSASVGDRVTITCRASQSISSWLAWYQQKPGKAPKLLIYKASSLESGVPSRFSGSGSGTEFTLTISSLQPDDFATYYCQQYRSFPTFGGGTKVEIK", 8.56),
]

// next item, pKd requested
// query Give the reported value of pKd for this record: Antibody 1G (antibody, IgG1, V domains shown, isotype hIgG1-297A (IgG1 N297A); kappa germline VK3-15.10) VH: QVQLVQSGAEVKKPGASVKVSCKASGYTFTSYGISWVRQAPGQGLEWMGWISAYNGNTNYAQKLQGRVTMTTDTSTSTAYMELRSLRSDDTAVYYCARLGATVAYFDLWGRGTLVTVSS VL: EIVLTQSPATLSVSPGERATLSCRASQSVSSNLAWYQQKPGQAPRLLIYGASTRATGIPARFSGSGSGTEFTLTISSLQSEDFAVYYCQQDVYWPFTFGGGTKVEIK
// result 9.01
